- Test system: Saccharomyces cerevisiae;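 further: PSI derived as read-weighted mean over the 8 sorting bins, only variants exceeding 10 total reads kept, mCherry placed adjacent to the peptide and sfGFP distal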
- ASSAY INFO: protein stability index of tFT-peptide fusion in wild type (PSI (0-1 scale)); higher = more stable (slower turnover)
- STUDY CONDITIONS: genetic background: wild type
Rule: protein stability index under 0.2 gives class 0, otherwise class 1.

{"ENTRY SEQUENCE": "RSLRKLLPLYFR", "TEST SYSTEM": "Saccharomyces cerevisiae", "CLASS": "class 1"}
{"ENTRY SEQUENCE": "CTLCGYKFRTNN", "TEST SYSTEM": "Saccharomyces cerevisiae", "CLASS": "class 1"}
{"ENTRY SEQUENCE": "VRGAVGGWRLDG", "TEST SYSTEM": "Saccharomyces cerevisiae", "CLASS": "class 1"}
{"ENTRY SEQUENCE": "KLYMCSVGCWFR", "TEST SYSTEM": "Saccharomyces cerevisiae", "CLASS": "class 1"}
{"ENTRY SEQUENCE": "FSMRWTFRYWYN", "TEST SYSTEM": "Saccharomyces cerevisiae", "CLASS": "class 0"}
{"ENTRY SEQUENCE": "AITLPMCPLLDR", "TEST SYSTEM": "Saccharomyces cerevisiae", "CLASS": "class 1"}
{"ENTRY SEQUENCE": "RSLRVLDPLYFR", "TEST SYSTEM": "Saccharomyces cerevisiae", "CLASS": "class 1"}
{"ENTRY SEQUENCE": "VPGAVGGWRLVG", "TEST SYSTEM": "Saccharomyces cerevisiae", "CLASS": "class 0"}
{"ENTRY SEQUENCE": "LVVYLSCVACINL", "TEST SYSTEM": "Saccharomyces cerevisiae", "CLASS": "class 0"}
{"ENTRY SEQUENCE": "LKILRQKMLHQN", "TEST SYSTEM": "Saccharomyces cerevisiae", "CLASS": "class 1"}
{"ENTRY SEQUENCE": "KKHTKGQKQKIN", "TEST SYSTEM": "Saccharomyces cerevisiae", "CLASS": "class 0"}
{"ENTRY SEQUENCE": "GLYMCSVWCWFR", "TEST SYSTEM": "Saccharomyces cerevisiae", "CLASS": "class 1"}
{"ENTRY SEQUENCE": "LKILRRKMNHQN", "TEST SYSTEM": "Saccharomyces cerevisiae", "CLASS": "class 1"}
{"ENTRY SEQUENCE": "ERGAVGGWRLVG", "TEST SYSTEM": "Saccharomyces cerevisiae", "CLASS": "class 0"}
{"ENTRY SEQUENCE": "LVVYLSCVACIE", "TEST SYSTEM": "Saccharomyces cerevisiae", "CLASS": "class 0"}
{"ENTRY SEQUENCE": "RVTELDAIYFRI", "TEST SYSTEM": "Saccharomyces cerevisiae", "CLASS": "class 1"}
{"ENTRY SEQUENCE": "RKILRQKMNHQN", "TEST SYSTEM": "Saccharomyces cerevisiae", "CLASS": "class 0"}
{"ENTRY SEQUENCE": "VRGPVGGWRLVG", "TEST SYSTEM": "Saccharomyces cerevisiae", "CLASS": "class 0"}
{"ENTRY SEQUENCE": "FVVYLSCVACIN", "TEST SYSTEM": "Saccharomyces cerevisiae", "CLASS": "class 0"}
{"ENTRY SEQUENCE": "GIYMCSVGCWFR", "TEST SYSTEM": "Saccharomyces cerevisiae", "CLASS": "class 1"}
{"ENTRY SEQUENCE": "CLVWLPILLFFR", "TEST SYSTEM": "Saccharomyces cerevisiae", "CLASS": "class 0"}
{"ENTRY SEQUENCE": "CDVSLPILLFFR", "TEST SYSTEM": "Saccharomyces cerevisiae", "CLASS": "class 0"}
{"ENTRY SEQUENCE": "CLVSLIILLFFR", "TEST SYSTEM": "Saccharomyces cerevisiae", "CLASS": "class 1"}
{"ENTRY SEQUENCE": "FSSRWTFRYWVN", "TEST SYSTEM": "Saccharomyces cerevisiae", "CLASS": "class 0"}
{"ENTRY SEQUENCE": "CLVSLPILLEFR", "TEST SYSTEM": "Saccharomyces cerevisiae", "CLASS": "class 1"}
{"ENTRY SEQUENCE": "RLIQPLPVQFLNA", "TEST SYSTEM": "Saccharomyces cerevisiae", "CLASS": "class 1"}
{"ENTRY SEQUENCE": "FSMRWTFRYWVNI", "TEST SYSTEM": "Saccharomyces cerevisiae", "CLASS": "class 0"}
{"ENTRY SEQUENCE": "AIILPMCPLLLR", "TEST SYSTEM": "Saccharomyces cerevisiae", "CLASS": "class 1"}
{"ENTRY SEQUENCE": "LSLRVLLPLYFR", "TEST SYSTEM": "Saccharomyces cerevisiae", "CLASS": "class 1"}
{"ENTRY SEQUENCE": "CRVSLPILLFFR", "TEST SYSTEM": "Saccharomyces cerevisiae", "CLASS": "class 0"}
{"ENTRY SEQUENCE": "GLYDCSVGCWFR", "TEST SYSTEM": "Saccharomyces cerevisiae", "CLASS": "class 1"}
{"ENTRY SEQUENCE": "NITLPMCPLLLR", "TEST SYSTEM": "Saccharomyces cerevisiae", "CLASS": "class 1"}
{"ENTRY SEQUENCE": "CTSCGYKFRTNL", "TEST SYSTEM": "Saccharomyces cerevisiae", "CLASS": "class 1"}
{"ENTRY SEQUENCE": "CTSCGYKFRTNNT", "TEST SYSTEM": "Saccharomyces cerevisiae", "CLASS": "class 1"}
{"ENTRY SEQUENCE": "LDVYLSCVACIN", "TEST SYSTEM": "Saccharomyces cerevisiae", "CLASS": "class 0"}
{"ENTRY SEQUENCE": "PDKRNHLIKLLD", "TEST SYSTEM": "Saccharomyces cerevisiae", "CLASS": "class 1"}
{"ENTRY SEQUENCE": "IKILRQKMNHQN", "TEST SYSTEM": "Saccharomyces cerevisiae", "CLASS": "class 0"}
{"ENTRY SEQUENCE": "RVTRLDAIYLRI", "TEST SYSTEM": "Saccharomyces cerevisiae", "CLASS": "class 1"}
{"ENTRY SEQUENCE": "CLKSLPILLFFR", "TEST SYSTEM": "Saccharomyces cerevisiae", "CLASS": "class 0"}
{"ENTRY SEQUENCE": "PDKRNHLIKHLN", "TEST SYSTEM": "Saccharomyces cerevisiae", "CLASS": "class 0"}
